TESTED TARGET: BSA (UniProt P02769)
Sequence (P02769 25-607 limits assumed): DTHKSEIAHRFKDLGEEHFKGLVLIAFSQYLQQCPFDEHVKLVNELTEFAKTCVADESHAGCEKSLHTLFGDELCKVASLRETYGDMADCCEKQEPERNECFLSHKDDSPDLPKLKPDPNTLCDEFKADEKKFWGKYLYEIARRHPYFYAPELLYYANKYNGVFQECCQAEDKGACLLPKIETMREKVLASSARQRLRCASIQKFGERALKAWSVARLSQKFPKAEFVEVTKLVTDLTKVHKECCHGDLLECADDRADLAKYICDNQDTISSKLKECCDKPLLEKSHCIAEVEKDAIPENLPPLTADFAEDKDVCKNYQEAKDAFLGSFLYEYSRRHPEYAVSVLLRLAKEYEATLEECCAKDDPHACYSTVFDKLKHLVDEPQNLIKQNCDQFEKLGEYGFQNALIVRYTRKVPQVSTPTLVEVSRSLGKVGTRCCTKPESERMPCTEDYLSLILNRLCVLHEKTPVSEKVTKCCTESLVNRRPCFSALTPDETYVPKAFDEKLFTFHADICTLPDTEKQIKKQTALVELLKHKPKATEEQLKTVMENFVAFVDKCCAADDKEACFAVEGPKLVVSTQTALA
TEST PROTOCOL: scFv ELISA
Measured OD450, listed per entry for reference.
Your answer is read as OD450, so omit the unit and give the number.

[[record]]
binder = "PcOxP_DB04_A12 (scFv, V domains shown, scFv in periplasmic extract) VH: EVQLLESGGGLVQPGGSLRLSCAASGFTFSDGYMEWVRQAPGKGLEWVAASRNKWNDYTTEYADSVKGRFTISRDNSKNTLYLQMNSLRAEDTAVYYCARDYYGSSYWYFDVWGQGTLVTVSS VL: DIQMTQSPSSLSASVGDRVTITCTASESLYSSKHKVHYLAWYQQKPGKAPKLLIYGASNRYDGVPSRFSGSGSGTDFTLTISSLQPEDFATYYCAQFYSYPLTFGGGTKVEIK"
units_of_measure = "OD450"
meas_value = 0.12


Proceed to the following item.
Req: Consider the binder PcOxP_DB03_A04 (scFv, V domains shown, scFv in periplasmic extract) VH: EVQLLESGGGLVQPGGSLRLSCAASGDTFSDFYMEWVRQAPGKGLEWVAASRNKANDYSTEYADSVKGRFTISRDNSKNTLYLQMNSLRAEDTAVYYCARDYYGSSYWYFDVWGQGTLVTVSS VL: DIVMTQSPDSLAVSLGERATINCEASESLYSSKHKVHYLAWYQQKPGQPPKLLIYGASNRYIGVPDRFSGSGSGTDFTLTISSLQAEDVAVYYCAQFYSYPLTFGGGTKVEIK and give its measured OD450.
Resp: 0.06
